Target: Ube1 (Homo sapiens)
Sequence (P22314 1-1058): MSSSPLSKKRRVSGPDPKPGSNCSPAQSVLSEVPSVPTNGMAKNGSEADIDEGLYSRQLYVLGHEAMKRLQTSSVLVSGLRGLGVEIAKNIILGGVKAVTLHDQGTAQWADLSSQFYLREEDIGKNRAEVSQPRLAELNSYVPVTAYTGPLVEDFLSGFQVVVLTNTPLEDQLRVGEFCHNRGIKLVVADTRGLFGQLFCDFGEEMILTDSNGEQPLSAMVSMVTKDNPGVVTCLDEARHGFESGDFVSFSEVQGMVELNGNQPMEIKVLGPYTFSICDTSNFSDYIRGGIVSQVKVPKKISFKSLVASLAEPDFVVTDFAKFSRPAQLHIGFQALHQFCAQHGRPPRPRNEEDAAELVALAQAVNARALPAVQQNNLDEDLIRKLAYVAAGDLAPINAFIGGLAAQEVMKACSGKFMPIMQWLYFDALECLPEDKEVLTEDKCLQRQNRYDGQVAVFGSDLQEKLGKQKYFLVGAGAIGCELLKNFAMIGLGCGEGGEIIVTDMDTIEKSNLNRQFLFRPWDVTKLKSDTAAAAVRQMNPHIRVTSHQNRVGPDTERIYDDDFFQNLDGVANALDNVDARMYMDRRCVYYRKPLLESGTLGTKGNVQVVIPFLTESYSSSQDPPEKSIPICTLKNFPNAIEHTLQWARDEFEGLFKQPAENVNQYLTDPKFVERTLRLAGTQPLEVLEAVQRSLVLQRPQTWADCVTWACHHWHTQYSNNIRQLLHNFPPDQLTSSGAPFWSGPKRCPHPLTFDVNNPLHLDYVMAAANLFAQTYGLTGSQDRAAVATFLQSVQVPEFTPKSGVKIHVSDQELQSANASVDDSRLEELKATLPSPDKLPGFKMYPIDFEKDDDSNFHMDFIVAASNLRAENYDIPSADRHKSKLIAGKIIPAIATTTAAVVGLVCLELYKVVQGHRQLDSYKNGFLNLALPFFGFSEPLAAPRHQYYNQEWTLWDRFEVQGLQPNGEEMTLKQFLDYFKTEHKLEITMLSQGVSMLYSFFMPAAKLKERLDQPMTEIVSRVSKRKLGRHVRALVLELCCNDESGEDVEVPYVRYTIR
Assay: ATP-PPi exchange assay of Ube1 activation
Format: biochemical
Settings: ATP-PPi exchange catalyzed by Ube1; 0.05 uM Ube1, peptides 10-1000 uM, pH7.5, room temperature; Michaelis-Menten fit; n=3
kcat values by entry
measured_quantity: kcat (min⁻¹)

substance="VQRYWGG [P3, previously reported short peptide VQRYWGG, positive control, reference compound]" unit_info=min⁻¹ value_reported=6.68
substance="VYRFYGG [P4, previously reported short peptide VYRFYGG, positive control, reference compound]" unit_info=min⁻¹ value_reported=13.98

* * *

Catalogue of kcat/Km values
Molecular target: Ube1 (Homo sapiens)
Experiment: ATP-PPi exchange assay of Ube1 activation
Assay type: biochemical
Conditions: ATP-PPi exchange catalyzed by Ube1; 0.05 uM Ube1, peptides 10-1000 uM, pH7.5, room temperature; n=3
measured_quantity: kcat/Km (µM/min)

substance="VLRLRGG [P1, reference compound]" value_reported=5.24e-05
substance="VYRFYGG [P4, previously reported short peptide VYRFYGG, positive control, reference compound]" value_reported=0.0557
substance="VQRYWGG [P3, previously reported short peptide VQRYWGG, positive control, reference compound]" value_reported=0.014

* * *

Molecular target: Ube1 (Homo sapiens)
Assay: ATP-PPi exchange assay of Ube1 activation
Assay type: biochemical
Details: ATP-PPi exchange catalyzed by Ube1; 0.05 uM Ube1, peptides 10-1000 uM, 50 mM Tris-Cl pH7.5, 10 mM MgCl2, 1 mM ATP, 1 mM [32P]pyrophosphate, room temperature; Michaelis-Menten fit; n=3
Quick rule for you: Km at 500 µM or higher means YES, lower means NO.

substance="VLRQLGG [C2, heptamer peptide VLRQLGG from Drosophila homologue of C1orf55]" tested_target="Ube1 (Homo sapiens)" cat=YES
substance="VYRFYGG [P4, previously reported short peptide VYRFYGG, positive control, reference compound]" tested_target="Ube1 (Homo sapiens)" cat=NO
substance="EPRLCGG [C1, heptamer peptide EPRLCGG from the motif of Human C1orf55]" tested_target="Ube1 (Homo sapiens)" cat=YES
substance="AGRMLGG [C7, heptamer peptide AGRMLGG from Ubiquitin-like protein fubi and ribosomal protein S30 precursor]" tested_target="Ube1 (Homo sapiens)" cat=YES
substance="VQRYWGG [P3, previously reported short peptide VQRYWGG, positive control, reference compound]" tested_target="Ube1 (Homo sapiens)" cat=NO

* * *

Target: Ube1 (Homo sapiens)
Sequence (P22314 1-1058): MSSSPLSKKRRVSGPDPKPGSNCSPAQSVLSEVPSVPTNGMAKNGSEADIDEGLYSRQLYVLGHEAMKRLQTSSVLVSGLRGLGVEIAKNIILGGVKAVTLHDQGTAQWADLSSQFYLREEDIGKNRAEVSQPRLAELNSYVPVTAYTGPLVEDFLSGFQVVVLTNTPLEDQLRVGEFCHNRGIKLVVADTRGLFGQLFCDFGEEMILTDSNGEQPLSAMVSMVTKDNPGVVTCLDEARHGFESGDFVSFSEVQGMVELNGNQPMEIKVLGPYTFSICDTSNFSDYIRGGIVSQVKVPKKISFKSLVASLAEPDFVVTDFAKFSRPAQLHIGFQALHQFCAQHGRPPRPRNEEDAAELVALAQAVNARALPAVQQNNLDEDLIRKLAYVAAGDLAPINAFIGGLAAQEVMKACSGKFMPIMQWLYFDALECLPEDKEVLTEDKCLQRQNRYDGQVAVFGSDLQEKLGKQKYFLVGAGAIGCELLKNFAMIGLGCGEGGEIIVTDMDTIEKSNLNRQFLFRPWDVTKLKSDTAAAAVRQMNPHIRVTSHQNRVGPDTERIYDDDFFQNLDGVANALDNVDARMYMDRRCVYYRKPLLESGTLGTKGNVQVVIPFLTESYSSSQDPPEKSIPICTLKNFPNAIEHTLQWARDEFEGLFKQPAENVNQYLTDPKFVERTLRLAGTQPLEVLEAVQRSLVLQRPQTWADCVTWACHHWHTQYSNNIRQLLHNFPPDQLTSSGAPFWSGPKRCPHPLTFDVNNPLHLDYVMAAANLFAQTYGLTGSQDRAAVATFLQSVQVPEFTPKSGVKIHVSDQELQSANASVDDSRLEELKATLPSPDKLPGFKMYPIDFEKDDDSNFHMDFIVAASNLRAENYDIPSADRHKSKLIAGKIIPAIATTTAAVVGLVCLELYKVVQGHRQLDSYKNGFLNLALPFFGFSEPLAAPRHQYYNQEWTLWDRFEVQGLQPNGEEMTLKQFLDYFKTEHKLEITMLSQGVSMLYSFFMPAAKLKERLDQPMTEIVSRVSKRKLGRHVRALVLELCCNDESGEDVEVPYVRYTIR
Test: ATP-PPi exchange assay of Ube1 activation
Format: biochemical
Details: ATP-PPi exchange catalyzed by Ube1; 0.05 uM Ube1, peptides 10-1000 uM, pH7.5, room temperature; Michaelis-Menten fit; n=3
measured_quantity: kcat

substance="EPRLCGG [C1, heptamer peptide EPRLCGG from the motif of Human C1orf55]" measured_quantity=kcat value_reported="2.29±0.59^a min^−1"
substance="VLRQLGG [C2, heptamer peptide VLRQLGG from Drosophila homologue of C1orf55]" measured_quantity=kcat value_reported="3.73±0.87^b min^−1"
substance="AGRMLGG [C7, heptamer peptide AGRMLGG from Ubiquitin-like protein fubi and ribosomal protein S30 precursor]" measured_quantity=kcat value_reported="5.54±1.37^c min^−1"

* * *

Target: Ube1 (Homo sapiens)
Sequence (P22314 1-1058): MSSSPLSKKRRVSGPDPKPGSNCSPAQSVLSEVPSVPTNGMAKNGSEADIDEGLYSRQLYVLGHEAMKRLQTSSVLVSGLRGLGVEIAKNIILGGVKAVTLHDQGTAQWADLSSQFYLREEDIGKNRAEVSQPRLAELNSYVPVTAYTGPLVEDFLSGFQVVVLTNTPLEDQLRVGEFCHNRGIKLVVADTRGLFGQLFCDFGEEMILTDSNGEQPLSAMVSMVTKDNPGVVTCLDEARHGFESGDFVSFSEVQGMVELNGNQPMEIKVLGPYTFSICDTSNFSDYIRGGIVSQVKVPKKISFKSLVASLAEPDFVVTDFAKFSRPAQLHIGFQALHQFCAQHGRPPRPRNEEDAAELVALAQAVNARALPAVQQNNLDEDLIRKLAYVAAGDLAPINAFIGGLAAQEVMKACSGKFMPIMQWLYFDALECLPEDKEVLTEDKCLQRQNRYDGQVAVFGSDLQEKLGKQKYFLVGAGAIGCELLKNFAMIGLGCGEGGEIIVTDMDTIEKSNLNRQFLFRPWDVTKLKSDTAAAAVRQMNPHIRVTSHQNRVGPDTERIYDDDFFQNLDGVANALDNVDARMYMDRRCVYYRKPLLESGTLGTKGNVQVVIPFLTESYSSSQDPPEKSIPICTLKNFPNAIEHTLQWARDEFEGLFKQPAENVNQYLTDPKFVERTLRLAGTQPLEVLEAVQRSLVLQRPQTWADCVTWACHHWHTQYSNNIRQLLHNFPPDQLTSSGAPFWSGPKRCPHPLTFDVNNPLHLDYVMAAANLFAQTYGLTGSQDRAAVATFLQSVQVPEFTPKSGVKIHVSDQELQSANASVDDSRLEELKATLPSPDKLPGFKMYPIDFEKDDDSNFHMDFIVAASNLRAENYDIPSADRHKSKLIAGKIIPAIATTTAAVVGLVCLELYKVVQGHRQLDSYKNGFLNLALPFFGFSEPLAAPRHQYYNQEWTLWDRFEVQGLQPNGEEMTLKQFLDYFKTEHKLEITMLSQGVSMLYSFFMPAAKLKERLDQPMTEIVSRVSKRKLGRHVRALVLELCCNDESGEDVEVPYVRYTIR
Test: ATP-PPi exchange assay of Ube1 activation
Format: biochemical
Conditions: ATP-PPi exchange catalyzed by Ube1; 0.05 uM Ube1, peptides 10-1000 uM, pH7.5, room temperature; n=3
Marks after values point to notes of the source that are not given here.
// reported kcat/Km for each item listed
measured_quantity: kcat/Km

substance="AGRMLGG [C7, heptamer peptide AGRMLGG from Ubiquitin-like protein fubi and ribosomal protein S30 precursor]" tested_target="Ube1 (Homo sapiens)" measured_quantity=kcat/Km value_reported="1.01 x10^−2^c μM min^−1"
substance="VLRQLGG [C2, heptamer peptide VLRQLGG from Drosophila homologue of C1orf55]" tested_target="Ube1 (Homo sapiens)" measured_quantity=kcat/Km value_reported="6.10 x10^−3^b μM min^−1"
substance="EPRLCGG [C1, heptamer peptide EPRLCGG from the motif of Human C1orf55]" tested_target="Ube1 (Homo sapiens)" measured_quantity=kcat/Km value_reported="3.52 x10^−3^a μM min^−1"
